Data provenance is paper PMC11597167.

# Tested on: SH-SY5Y human neuroblastoma cells
# Format: cell-based
# experimentalSetup: concentration with 8% inhibition (92% viability); SH-SY5Y, 24 h; Mean ± SD
observable: IC08 Values (µM)

| molecule | measuredOn | observable | numericValue |
| --- | --- | --- | --- |
| O=C(O)c1cc(O)c(O)c(O)c1 [Gallic acid, 3,4,5-trihydroxybenzoic acid] | SH-SY5Y human neuroblastoma cells | IC08 Values | 187 |
| O=c1c(O)c(-c2ccc(O)c(O)c2)oc2cc(O)cc(O)c12 [Quercetin, 3,3′,4′,5,7-pentahydroxyflavone, reference compound] | SH-SY5Y human neuroblastoma cells | IC08 Values | 27 |
| OCCc1ccc(O)c(O)c1 [3-Hydroxytyrosol, 3-hydroxytyrosol] | SH-SY5Y human neuroblastoma cells | IC08 Values | 278 |
| O=C(O[C@@H]1Cc2c(O)cc(O)cc2O[C@@H]1c1cc(O)c(O)c(O)c1)c1cc(O)c(O)c(O)c1 [EGCG, epigallocatechin gallate] | SH-SY5Y human neuroblastoma cells | IC08 Values | 103 |

----------
# measuredOn: human recombinant BACE1 (Homo sapiens, UniProt P56817)
# Sequence (P56817 46-501): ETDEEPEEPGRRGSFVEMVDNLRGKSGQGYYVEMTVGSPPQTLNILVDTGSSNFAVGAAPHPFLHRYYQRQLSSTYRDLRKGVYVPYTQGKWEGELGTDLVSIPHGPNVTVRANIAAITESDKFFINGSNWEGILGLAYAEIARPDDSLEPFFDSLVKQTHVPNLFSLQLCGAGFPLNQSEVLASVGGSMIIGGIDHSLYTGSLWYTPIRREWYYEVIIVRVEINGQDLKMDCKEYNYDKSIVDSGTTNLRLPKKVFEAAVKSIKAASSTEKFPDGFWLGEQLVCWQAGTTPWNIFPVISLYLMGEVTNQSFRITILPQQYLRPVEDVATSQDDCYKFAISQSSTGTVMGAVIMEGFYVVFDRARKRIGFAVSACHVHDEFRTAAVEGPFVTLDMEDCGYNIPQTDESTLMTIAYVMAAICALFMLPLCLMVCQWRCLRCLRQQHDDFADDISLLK
# methodDescription: biochemical
# Assay type: biochemical
# experimentalSetup: 10 mM stock concentration; n: 3
observable: BACE1 Inhibition (Inhibition% ± SD) (%)

| compound | unitsSymbol | numericValue |
| --- | --- | --- |
| O=C(O)c1cc(O)c(O)c(O)c1 [Gallic acid, 3,4,5-trihydroxybenzoic acid] | % | 27.51 |
| O=c1c(O)c(-c2ccc(O)c(O)c2)oc2cc(O)cc(O)c12 [Quercetin, 3,3′,4′,5,7-pentahydroxyflavone, reference compound] | % | 86.87 |
| C/C=C1/[C@H](O[C@@H]2O[C@H](CO)[C@@H](O)[C@H](O)[C@H]2O)OC=C(C(=O)OC)[C@H]1CC(=O)OCCc1ccc(O)c(O)c1 | % | 52.38 |
| OCCc1ccc(O)c(O)c1 [3-Hydroxytyrosol, 3-hydroxytyrosol] | % | 45.33 |
| O=C(/C=C/c1ccc(O)c(O)c1)O[C@H](Cc1ccc(O)c(O)c1)C(=O)O | % | 67.04 |

----------
# System: MMP9
# methodDescription: RT-PCR gene expression in SH-SY5Y cells
# Format: cell-based, human
# experimentalSetup: 24 h at IC08, vs DMSO control, normalized to β-actin
observable: Fold Regulation MMP9

| compound | numericValue |
| --- | --- |
| OCCc1ccc(O)c(O)c1 [3-Hydroxytyrosol, 3-hydroxytyrosol] | 4.38 |
| C/C=C1/[C@H](O[C@@H]2O[C@H](CO)[C@@H](O)[C@H](O)[C@H]2O)OC=C(C(=O)OC)[C@H]1CC(=O)OCCc1ccc(O)c(O)c1 | 5.31 |
| O=C(O)c1cc(O)c(O)c(O)c1 [Gallic acid, 3,4,5-trihydroxybenzoic acid] | 3.14 |
| O=C(/C=C/c1ccc(O)c(O)c1)O[C@H](Cc1ccc(O)c(O)c1)C(=O)O | 3.02 |

----------
# System: TNF
# methodDescription: RT-PCR gene expression in SH-SY5Y cells
# Type: cell-based, human
# experimentalSetup: 24 h at IC08, vs DMSO control, normalized to β-actin
In this section we review reported Fold Regulation TNF values for a set of compounds.

| compound | Fold Regulation TNF |
| --- | --- |
| O=C(/C=C/c1ccc(O)c(O)c1)O[C@H](Cc1ccc(O)c(O)c1)C(=O)O | 1.75 |
| OCCc1ccc(O)c(O)c1 [3-Hydroxytyrosol, 3-hydroxytyrosol] | 2.04 |
| O=C(O)c1cc(O)c(O)c(O)c1 [Gallic acid, 3,4,5-trihydroxybenzoic acid] | 2.06 |
| C/C=C1/[C@H](O[C@@H]2O[C@H](CO)[C@@H](O)[C@H](O)[C@H]2O)OC=C(C(=O)OC)[C@H]1CC(=O)OCCc1ccc(O)c(O)c1 | 2.09 |
